All values here come from patent US20030186464A1.

- tested system: immobilized IL-2 (Homo sapiens, UniProt P60568)
- Construct: made in house; host or cells: E. coli
- Sequence (P60568 21-153): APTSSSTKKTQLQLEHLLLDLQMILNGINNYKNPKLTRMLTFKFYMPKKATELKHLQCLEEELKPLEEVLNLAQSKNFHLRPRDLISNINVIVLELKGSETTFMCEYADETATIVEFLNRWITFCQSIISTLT
- method summary: Double ligand SPR on immobilized interleukin-2 (Examples 9-11)
- Assay type: binding
- condition details: Example 11, immobilized interleukin-2; read-out: apparent Kd in SPR experiments
pKd: −log10 of the molar value.
assay metric: pKd

[A] N=C(N)N[C@@H](C(=O)NCC(=O)N1CCC(c2cc(-c3ccc(O)cc3Cl)[nH]n2)CC1)C1CCCCC1 [Compound 16]
[B] COC(=O)[C@H](Cc1ccc(C=Cc2ccccc2)cc1)NC(=O)C[C@H]1CCCN(C(=N)N)C1 [Compound 2c]
Prompt: In terms of reported pKd, does A or B have the smaller number? Use the label to indicate which entry you chose.
Response: B
(B: 5.00, A: 5.30)

* * *

- tested system: IL1R-I13C (Homo sapiens, UniProt P14778, I30C)
- Construct: soluble interleukin-1 receptor, type 1 having a mutation to cysteine; made in house; host or cells: E. coli or baculovirus-infected insect cells (TN-5B1-4, High Five)
- method summary: SPR ranking of reversible covalent (disulfide) bond formation with immobilized protein-thiolate (Examples 5-6)
- Assay type: binding
- condition details: disulfide compound 100 μM, reductant 500 μM; fraction of protein-thiolate on the chip covalently bound
assay metric: Fraction bound IL1R-I13C

Completed entries (count: 2):
Prompt: Dear colleague, I am looking for the recorded Fraction bound IL1R-I13C of the following molecule: COC(=O)c1cccc(NC(=O)c2ccc(NC(=O)CSSCCN)cc2)c1 [Compound 13t]
Response: 0.0

Prompt: Dear colleague, I am looking for the recorded Fraction bound IL1R-I13C of the following molecule: COc1cc(C(=O)N2CCCC(C(=O)NCCSSCCN)C2)ccc1O (stereo not shown) [Compound 15t]
Response: 0.0

[A] NCCSSCCC(=O)NC(c1ccccc1)c1cc2ccccc2cn1 (stereo not shown) [Compound 14t]
[B] CC(=O)c1ccccc1NC(=O)c1ccc(NC(=O)CSSCCN)cc1 [Compound 12t]
Prompt: In terms of reported Fraction bound IL1R-I13C, does A or B have the smaller number? Use the label to indicate which entry you chose.
Response: A

* * *

- tested system: IL1R-I29C (Homo sapiens, UniProt P14778)
- Construct: soluble interleukin-1 receptor, type 1 having a mutation to cysteine; made in house; host or cells: E. coli or baculovirus-infected insect cells (TN-5B1-4, High Five)
- Sequence (P14778 18-336 E146C): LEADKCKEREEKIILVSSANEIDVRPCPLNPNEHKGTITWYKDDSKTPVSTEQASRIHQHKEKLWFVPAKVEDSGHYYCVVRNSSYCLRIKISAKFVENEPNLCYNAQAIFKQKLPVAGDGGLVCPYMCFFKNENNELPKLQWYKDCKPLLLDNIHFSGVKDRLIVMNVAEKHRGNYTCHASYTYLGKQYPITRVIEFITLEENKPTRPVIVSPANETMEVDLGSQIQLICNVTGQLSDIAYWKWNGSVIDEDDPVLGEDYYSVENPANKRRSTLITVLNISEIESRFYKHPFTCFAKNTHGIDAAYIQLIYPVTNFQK
- method summary: SPR ranking of reversible covalent (disulfide) bond formation with immobilized protein-thiolate (Examples 5-6)
- Type: binding
- condition details: disulfide compound 100 μM, reductant 500 μM; fraction of protein-thiolate on the chip covalently bound
assay metric: Fraction bound IL1R-I29C

Prompt: What measured Fraction bound IL1R-I29C is associated with COC(=O)c1cccc(NC(=O)c2ccc(NC(=O)CSSCCN)cc2)c1 [Compound 13t] on IL1R-I29C (Homo sapiens, UniProt P14778)?
Response: 0.0

Prompt: What measured Fraction bound IL1R-I29C is associated with CC(=O)c1ccccc1NC(=O)c1ccc(NC(=O)CSSCCN)cc1 [Compound 12t] on IL1R-I29C (Homo sapiens, UniProt P14778)?
Response: 0.0

[I] COc1cc(C(=O)N2CCCC(C(=O)NCCSSCCN)C2)ccc1O (stereo not shown) [Compound 15t]
[II] NCCSSCCC(=O)NC(c1ccccc1)c1cc2ccccc2cn1 (stereo not shown) [Compound 14t]
Prompt: In terms of reported Fraction bound IL1R-I29C, does I or II have the smaller number? Use the label to indicate which entry you chose.
Response: I
(I: 0.2, II: 0.6)
